Reported kon is given for each of the following binders.
Biological target: T1, recombinant extracellular domain (ECD) of human TF, amino acid 1-219 of the mature chain, C-terminal His6-tag (human, UniProt P13726 33-251)
T1 construct: expressed in a mammalian system; used for ELISA and Biacore; biotinylated by NHS-ester for the Fab ELISA; also called His6-TF-ECD1-219; HumanTF1-219
Test: Biacore
Express the result in M⁻¹ s⁻¹ but write the number alone.

The examples below pair each entry with its known result.
M1612 (antibody, V domains shown, complete MAb; FR4 is its own entry; also called H133/L3; TF7M1612) VH: EVQLVQSGAEVKKPGESLRISCKGSGYTFNPYWIEWVRQMPGKGLEWMGDILPGTGYTNYSPSFQGHVTISADKSISTAYLQWSSLKASDTAMYYCARSGYYGNSGFAYWGQGTLVTVSS VL: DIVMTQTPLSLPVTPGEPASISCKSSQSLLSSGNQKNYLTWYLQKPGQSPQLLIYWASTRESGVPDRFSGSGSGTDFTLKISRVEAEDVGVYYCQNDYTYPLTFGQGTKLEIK ... 165000
M1588 (antibody, V domains shown, complete MAb; FR4 is its own entry; also called H179/L3) VH: EVQLVQSGAEVKKPGESLRISCKGSGYTFGPFWIEWVRQMPGKGLEWMGDILPGSGYTNYSPSFQGHVTISADKSISTAYLQWSSLKASDTAMYYCARSGYYGNSGFAYWGQGTLVTVSS VL: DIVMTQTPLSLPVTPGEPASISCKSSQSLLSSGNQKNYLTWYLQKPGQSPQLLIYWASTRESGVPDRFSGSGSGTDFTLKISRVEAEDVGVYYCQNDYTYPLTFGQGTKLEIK ... 173000
M1598 (antibody, V domains shown, complete MAb; FR4 is its own entry; also called H137/L3) VH: EVQLVQSGAEVKKPGESLRISCKGSGYTFTPYWIEWVRQMPGKGLEWMGDILPGTGYTVYSPSFQGHVTISADKSISTAYLQWSSLKASDTAMYYCARSGYYGNSGFAYWGQGTLVTVSS VL: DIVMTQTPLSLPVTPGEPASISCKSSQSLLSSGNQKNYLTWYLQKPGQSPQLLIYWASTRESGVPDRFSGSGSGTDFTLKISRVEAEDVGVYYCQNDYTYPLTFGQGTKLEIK ... 192000

Looking up M1607 (antibody, V domains shown, complete MAb; FR4 is its own entry; also called H189/L3; TF7M1607) VH: EVQLVQSGAEVKKPGESLRISCKGSGFTFITYWIAWVRQMPGKGLEWMGDILPASSSTNYSPSFQGHVTISADKSISTAYLQWSSLKASDTAMYYCARSGYYGNSGFAYWGQGTLVTVSS VL: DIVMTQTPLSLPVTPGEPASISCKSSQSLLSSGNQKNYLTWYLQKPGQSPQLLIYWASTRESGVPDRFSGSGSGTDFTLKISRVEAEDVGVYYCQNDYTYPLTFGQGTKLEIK , I see its kon listed as 170000

Looking up M1592 (antibody, V domains shown, complete MAb; FR4 is its own entry; also called H165/L3) VH: EVQLVQSGAEVKKPGESLRISCKGSGYTFSPHWIEWVRQMPGKGLEWMGDILPGSGYTIYSPSFQGHVTISADKSISTAYLQWSSLKASDTAMYYCARSGYYGNSGFAYWGQGTLVTVSS VL: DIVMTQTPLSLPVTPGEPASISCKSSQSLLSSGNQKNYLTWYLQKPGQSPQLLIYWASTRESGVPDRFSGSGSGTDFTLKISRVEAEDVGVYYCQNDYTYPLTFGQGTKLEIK , I see its kon listed as 191000
